Recorded EC50 pY588 for the following binders
Molecular target: EphA2 endogenously expressed on PC3 prostate cancer cells (UniProt P29317 24-976, limits assumed)
Sequence (P29317 24-976 limits assumed): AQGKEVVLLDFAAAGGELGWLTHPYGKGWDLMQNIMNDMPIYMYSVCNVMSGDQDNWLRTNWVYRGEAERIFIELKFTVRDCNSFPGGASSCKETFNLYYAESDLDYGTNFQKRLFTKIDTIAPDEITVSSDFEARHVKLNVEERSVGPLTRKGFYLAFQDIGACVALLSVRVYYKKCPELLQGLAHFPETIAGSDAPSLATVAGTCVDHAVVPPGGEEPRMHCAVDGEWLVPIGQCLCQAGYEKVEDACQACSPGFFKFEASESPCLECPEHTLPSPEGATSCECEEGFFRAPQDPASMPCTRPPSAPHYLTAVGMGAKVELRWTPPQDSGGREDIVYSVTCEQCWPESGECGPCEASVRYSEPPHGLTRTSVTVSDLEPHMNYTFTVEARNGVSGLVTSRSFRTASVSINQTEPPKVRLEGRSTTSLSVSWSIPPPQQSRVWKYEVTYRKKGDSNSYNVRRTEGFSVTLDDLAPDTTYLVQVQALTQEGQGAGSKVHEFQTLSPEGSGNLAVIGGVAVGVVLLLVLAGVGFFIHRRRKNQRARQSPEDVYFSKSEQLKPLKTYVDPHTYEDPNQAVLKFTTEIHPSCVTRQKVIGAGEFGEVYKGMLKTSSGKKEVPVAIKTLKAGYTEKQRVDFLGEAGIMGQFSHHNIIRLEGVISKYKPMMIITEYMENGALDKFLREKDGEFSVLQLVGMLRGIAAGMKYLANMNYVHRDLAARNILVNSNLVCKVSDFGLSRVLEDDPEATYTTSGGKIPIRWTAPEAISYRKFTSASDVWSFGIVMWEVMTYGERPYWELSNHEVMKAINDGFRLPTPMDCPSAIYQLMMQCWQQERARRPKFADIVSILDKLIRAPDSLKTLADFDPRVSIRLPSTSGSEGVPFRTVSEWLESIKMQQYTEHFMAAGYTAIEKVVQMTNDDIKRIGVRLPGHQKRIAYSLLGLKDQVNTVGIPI
Assay: cell-based or functional assay
Where no end group is shown, it is not given here. [ ]: non-standard residue; d: D form. βAla = NCCC(=O)O

# Binder, EC50 pY588 (nM)
records = [
    ("[βAla]WLAYPDSVPYRPKC (also: homodimer, disulfide at 15, other end not in the chain, C-terminally disulfide-linked homodimer made from monomer (19*); also called dimer (2); dimeric peptide (2)) [βA-WLA-YRPKC dimer (C-ter)]", 5.6),
    ("CGAWLAYPDSVPYRPK-NH2 (also: homodimer: N-terminal Cys of two chains joined by disulfide) [CGA-WLA-YRPKam dimer (N-ter)]", 0.36),
    ("Lys-linked dimer (C-ter) (also: bond at chain A 15 to a chain's C-terminus) peptide 1: [βAla]WLAYPDSVPYRPKK peptide 2: [βAla]WLAYPDSVPYRPK", 2.6),
    ("Click dimer (N-ter) (not fully specified; propargylglycine (Pra) at position 1, joined by a click linkage to KN3 of the other chain; C-terminal amide; azido-lysine (KN3) at position 1, joined by a click linkage to Pra of the other chain; C-terminal amide) peptide 1: KAWLAYPDSVPYRPK peptide 2: XGAWLAYPDSVPYRPK", 0.64),
]
